- assayedTarget: PL^pro (Severe acute respiratory syndrome coronavirus 2)
- assayText: biochemical
- Assay type: biochemical, SARS-CoV-2
pIC50: −log10 of the molar value.
measuredAttribute: pIC50

molecule	assayedTarget	dataValue
S=C=NCCc1ccccc1 [Compound X05, Phenethyl isothiocyanate]	PL^pro (Severe acute respiratory syndrome coronavirus 2)	4.36

* * *

- assayedTarget: 3CL^pro (Severe acute respiratory syndrome coronavirus 2, UniProt P0DTD1)
- assayText: biochemical
- Type: binding, SARS-CoV-2
pIC50: −log10 of the molar value.
In this section we review reported pIC50 values for a set of compounds.

compound	pIC50
O=C(/C=C/c1ccc(O)c2c1[C@H](C(=O)O)[C@@H](c1ccc(O)c(O)c1)O2)O[C@H](Cc1ccc(O)c(O)c1)C(=O)O [lithospermic acid]	4.49
S=C=NCCc1ccccc1 [Compound X05, Phenethyl isothiocyanate]	4.37
O=C(/C=C/c1ccc(O)c(O)c1)O[C@H](Cc1ccc(O)c(O)c1)C(=O)O [rosmarinic acid]	5.00
